Exercise: state measured pEC50 for each of the compounds provided.
- Assayed Target: human CB2 receptors (Homo sapiens (Human))
- Assay Info: functional cAMP assay, CB2
- Particulars: CHO cells expressing human CB2
Numbers only, as −log10 of the molar value.

Examples with answers:
State the recorded pEC50 for this entry: "CC(C)(C)c1nc(N2CCC[C@@H]2C#N)c2ncn(Cc3ncccc3Cl)c2n1" 8.16

State the recorded pEC50 for this entry: CC(C)(C)c1nc(N2CCC(O)C2)c2ncn(CC(=O)c3ccccc3Cl)c2n1 (stereo not shown) 6.99

State the recorded pEC50 for this entry: Cc1nonc1Cn1cnc2c(N3CCC(C)(O)C3)nc(NC(C)(C)C)nc21 (stereo not shown) 6.25

Dear colleague, could you please provide pEC50 for the compounds listed below?
1. CC(C)(C)c1nc(N2CCC3(COC3)C2)c2ncn(Cc3cccc(Cl)c3)c2n1
2. CC(C)(C)c1nc(N2CC[C@H](O)C2)c2ncn(Cc3c[nH]nc3C(F)(F)F)c2n1

[6.33, 7.65]

Dear colleague, could you please provide pEC50 for the compounds listed below?
1. CC1(O)CCN(c2nc(NC(C)(C)C)nc3c2ncn3Cc2ccccc2C(F)(F)F)C1 (stereo not shown)
2. CC(=O)N[C@H]1CCN(c2nc(C(C)(C)C)nc3c2ncn3Cc2ncccc2Cl)C1
3. Cc1nonc1Cn1cnc2c(N3CCC[C@@H]3C#N)nc(C(C)(C)C)nc21
4. CC(C)(C)c1nc(N2CCC(F)(F)C2)c2ncn(Cc3ncccc3Cl)c2n1
5. CC(C)(C)c1nc(N2CCC(F)(F)C2)c2ncn(Cc3c[nH]nc3C(F)(F)F)c2n1

1. 7.38
2. 6.41
3. 7.80
4. 8.66
5. 8.04

Dear colleague, could you please provide pEC50 for the compounds listed below?
1. CC(C)(C)c1nc(N2CCC3(COC3)C2)c2ncn(Cc3c[nH]nc3C(F)(F)F)c2n1
2. CC(C)(C)Nc1nc(N2CC3(COC3)C2)c2ncn(CCC(F)(F)F)c2n1
3. CC(C)(C)c1nc(N2CCC(F)(F)C2)c2ncn(C3CCOC3)c2n1 (stereo not shown)
4. CC(C)(C)c1nc(N2CCC3(C2)CC3(F)F)c2ncn(Cc3ncccc3Cl)c2n1 (stereo not shown)
5. CC(=O)N[C@H]1CCN(c2nc(C(C)(C)C)nc3c2ncn3Cc2ccccc2C(F)(F)F)C1
6. Cc1noc(Cn2cnc3c(N4CC5(COC5)C4)nc(NC(C)(C)C)nc32)n1

1. 6.82
2. 6.17
3. 8.51
4. 7.49
5. 7.19
6. 7.39

---

- Assayed Target: human CB2 receptors (Homo sapiens (Human), UniProt P34972)
- Sequence (P34972 whole entry): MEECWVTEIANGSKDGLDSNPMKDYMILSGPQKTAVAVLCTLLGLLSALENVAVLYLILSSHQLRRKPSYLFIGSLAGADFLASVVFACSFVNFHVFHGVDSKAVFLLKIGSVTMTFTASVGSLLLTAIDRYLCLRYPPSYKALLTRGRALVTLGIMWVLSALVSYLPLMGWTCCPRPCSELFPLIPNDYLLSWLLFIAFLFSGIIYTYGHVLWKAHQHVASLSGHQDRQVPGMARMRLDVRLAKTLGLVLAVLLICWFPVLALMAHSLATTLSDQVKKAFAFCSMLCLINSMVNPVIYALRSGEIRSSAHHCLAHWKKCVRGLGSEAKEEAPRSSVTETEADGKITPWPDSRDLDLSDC
- Assay Info: functional cAMP assay, CB2
- Particulars: CHO cells expressing human CB2
Criterion: EC50 strictly under 90 nM. Met: 1. Not met: -1.

Some entries whose results are on file:
Record "CC(C)(C)COc1nc(N2CC3(COC3)C2)c2ncn(Cc3ccccc3Cl)c2n1" : is its EC50 strictly below 90 nM? -1

Record "CC(C)(C)c1nc(N2CC[C@H](O)[C@H]2CO)c2ncn(Cc3ncccc3Cl)c2n1" : is its EC50 strictly below 90 nM? -1

Record CC(C)(C)c1nc(N2CCC(O)C2)c2ncn(Cc3cccnc3Cl)c2n1 (stereo not shown) : is its EC50 strictly below 90 nM? 1

Record "Cc1nonc1Cn1cnc2c(N3CC[C@H](O)C3)nc(C(C)(C)C)nc21" : is its EC50 strictly below 90 nM? 1

Record "Cc1nnc(Cn2cnc3c(N4CC(F)(F)C(F)(F)C4)nc(C(C)(C)C)nc32)o1" : is its EC50 strictly below 90 nM? -1

Record CC(C)(C)COc1nc(N2CCC(C)(O)C2)c2ncn(Cc3ccccc3C(F)(F)F)c2n1 (stereo not shown) : is its EC50 strictly below 90 nM? 1

Record "CC(=O)N[C@H]1CCN(c2nc(C(C)(C)C)nc3c2ncn3Cc2n[nH]cc2C(F)(F)F)C1" : is its EC50 strictly below 90 nM? -1

Record "Cn1nnnc1Cn1cnc2c(N3CCC(F)(F)C3)nc(OCC(C)(C)C)nc21" : is its EC50 strictly below 90 nM? -1

Others:
Record "CC(C)(C)c1nc(N2CC[C@H](O)C2)c2ncn(Cc3ccccc3S(C)(=O)=O)c2n1" : is its EC50 strictly below 90 nM? 1
